Experiment: Components of the Cytosolic LPS Sensing Pathway: Gene Identification via Genome-wide siRNA Screen
Conditions: RAW264.7 macrophages, IL-1a HTRF, actives lie on both sides, screened at 100 nM (by protocol), cells primed 5 h with Pam3CSK4 first
Screen size: about 53,000 sequences; about 3,700 (7%) were called active. Shown is part of a subset that was picked to be rich in actives.
Measured Endpoint: z-score

{"Residue Codes": "GGGCAAGAUGGUCAGUAGATT against Tpt1", "Measured Number": 0.627}
{"Residue Codes": "GAAAAGAGGAUUCCUUGCATT against Olfr1128", "Measured Number": 0.726}
{"Residue Codes": "GGUGUAUAGCUGUUGUGGGTT against Dennd2d", "Measured Number": -1.41}
{"Residue Codes": "GGACUCCUCAUGCUGAAGATT against Cdh13", "Measured Number": 1.97}
{"Residue Codes": "GGUCAUCGGGAGGUUUGAATT against Nfkbil1", "Measured Number": -0.0141}
{"Residue Codes": "GCUUAUAGUUCAGUUUUUGTT against Ints8", "Measured Number": 0.835}

---

Assay: Components of the Cytosolic LPS Sensing Pathway: Gene Identification via Genome-wide siRNA Screen;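 also: robust z of the log signal after scaling to non-targeting control siRNA wells of the plate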
Conditions: RAW264.7 macrophages, IL-1a HTRF, actives lie on both sides, screened at 100 nM (by protocol), cells primed 5 h with Pam3CSK4 first
The campaign covered roughly 53,000 sequences. About 3,700 (7%) were called active.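 The calls were made as follows: active = gene knockdowns whose robust z-score for IL-1 alpha signal is at least 2 or at most -2, so actives lie on both sides; inactive = the rest.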 Only a selection was taken, and actives are over-represented in it overall.
Outcome codes: yes (active), no (inactive)

{"Residue Codes": "GCACCCUAAUGUGAUCGCATT against Cdk19", "Assigned Category": "no"}
{"Residue Codes": "GGUUUACAGCAUCAUUAAATT against Shmt1", "Assigned Category": "no"}
{"Residue Codes": "GGGAUCAAUUUUGAAGAAUTT against Jmjd4", "Assigned Category": "no"}
{"Residue Codes": "GGUGUCUGGUUCAUAAAGGTT against Lcn4", "Assigned Category": "no"}
{"Residue Codes": "GGGUGUGUUUUUAUGUGUUTT against Lcp2", "Assigned Category": "yes"}
{"Residue Codes": "GGAGUUCGACAUUAGCGGATT against Ehf", "Assigned Category": "no"}
{"Residue Codes": "UGCUCUUGGGUUCUUAAAUTT against Olfr1466", "Assigned Category": "no"}
{"Residue Codes": "GGCAUUAACCUGAGAUGAUTT against Sprr2i", "Assigned Category": "no"}
{"Residue Codes": "GGCCAGCUCUCUUUUGCUATT against Cflar", "Assigned Category": "yes"}
{"Residue Codes": "GGAAAGUUCCCAUGUUCUCTT against Mgat4f", "Assigned Category": "no"}
{"Residue Codes": "GGACAUGACUCUAAAAAAATT against Slc44a3", "Assigned Category": "yes"}
{"Residue Codes": "GGCCGUUUCCUACCUCAUGTT against Cckbr", "Assigned Category": "no"}
{"Residue Codes": "CAAAGCCACCUCGCCCUAUTT against Nkx2-6", "Assigned Category": "no"}
{"Residue Codes": "CCAUGAGAACCUGAUGAAUTT against Pag1", "Assigned Category": "yes"}
{"Residue Codes": "GGAAUGUGGUUUCCUGUUATT against Fscn3", "Assigned Category": "no"}
{"Residue Codes": "GGUAAGCUCCAAUUAUGCCTT against Ubr3", "Assigned Category": "no"}

---

Test: Components of the Cytosolic LPS Sensing Pathway: Gene Identification via Genome-wide siRNA Screen;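 also: robust z of the log signal after scaling to non-targeting control siRNA wells of the plate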
Conditions: RAW264.7 macrophages, IL-1a HTRF, actives lie on both sides, screened at 100 nM (by protocol), cells primed 5 h with Pam3CSK4 first
In all, about 53,000 sequences went through this assay and about 3,700 (7%) were called active.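 Rule for the calls: active = gene knockdowns whose robust z-score for IL-1 alpha signal is at least 2 or at most -2, so actives lie on both sides; inactive = the rest.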 The full list was thinned out, with actives kept by preference.
Labels: TRUE = active, FALSE = inactive

{"Residue Codes": "GGAUUGGUUUAGUCAAUAATT against Psmc4", "Assigned Category": "TRUE"}
{"Residue Codes": "GGUUCUGGCUGGAAUCUACTT against Gnl1", "Assigned Category": "FALSE"}
{"Residue Codes": "CCUAGUCCCUCUGUCUCUUTT against Kctd13", "Assigned Category": "FALSE"}
{"Residue Codes": "GUAAGUUGUUUGAGGAAAGTT against Defb3", "Assigned Category": "TRUE"}
{"Residue Codes": "GCAAAGCCCUAUUCCUAAUTT against Vmn2r42", "Assigned Category": "FALSE"}
{"Residue Codes": "GGCCGCCCUAAAAAGAAGCTT against Olfr95", "Assigned Category": "FALSE"}
{"Residue Codes": "GGCUAACCGUAUCAGUCAUTT against Podnl1", "Assigned Category": "FALSE"}
{"Residue Codes": "GGGUCUACGAAGAAUAGGGTT against Cxcl14", "Assigned Category": "FALSE"}
{"Residue Codes": "GGCGAUUUACAACUUUGGATT against H2aw", "Assigned Category": "FALSE"}
{"Residue Codes": "GGACCCAUGAGGUUAACUUTT against Tbc1d22a", "Assigned Category": "FALSE"}
{"Residue Codes": "GGAUGAGGAAAACUUCCAGTT against Mup5", "Assigned Category": "TRUE"}
{"Residue Codes": "GCACUUAGACUAUUCCAGGTT against Tph2", "Assigned Category": "FALSE"}
{"Residue Codes": "GGUGGACAUGUGGAAUGAUTT against Ubxn11", "Assigned Category": "FALSE"}
{"Residue Codes": "GGGACAACAUUCAAAGGUCTT against Hdgfl1", "Assigned Category": "FALSE"}
{"Residue Codes": "GGAUUAGCUCUACAGAAGGTT against Olfr1031", "Assigned Category": "FALSE"}
{"Residue Codes": "GCUGAAUACCCUUUUAGUUTT against Atp2c1", "Assigned Category": "FALSE"}
{"Residue Codes": "GGAAGACACAUUUUUCCAUTT against Serpinb9e", "Assigned Category": "FALSE"}
{"Residue Codes": "GGAAAAGGGUCGUGCCUGUTT against Gm9991", "Assigned Category": "FALSE"}
{"Residue Codes": "GGAAAAAUACUCCAUAUUCTT against Enam", "Assigned Category": "FALSE"}
{"Residue Codes": "GCUCGUUGCAUAAAAAGAGTT against Creg2", "Assigned Category": "FALSE"}
{"Residue Codes": "CCACUUCUCUAAGACAAUCTT against Acox3", "Assigned Category": "FALSE"}

---

Assay: Components of the Cytosolic LPS Sensing Pathway: Gene Identification via Genome-wide siRNA Screen;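 also: robust z of the log signal after scaling to non-targeting control siRNA wells of the plate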
Settings: RAW264.7 macrophages, IL-1a HTRF, actives lie on both sides, screened at 100 nM (by protocol), cells primed 5 h with Pam3CSK4 first
In all, about 53,000 sequences went through this assay and about 3,700 (7%) were called active. Shown is part of a subset that was picked to be rich in actives.

{"Residue Codes": "GGAGCUAGAUAGGAAAAAATT against Vill", "z-score": -1.44}
{"Residue Codes": "GGCUAUCCAGAGAUACGUGTT against Snrnp25", "z-score": -0.571}
{"Residue Codes": "GAUGAUCUUUUGGAUGAACTT against Spem2", "z-score": -0.51}
{"Residue Codes": "ACCUGAAUUUGGUGACUGATT against Rdh18-ps", "z-score": 0.368}
{"Residue Codes": "GGUAUACCACUAUUCUCACTT against Olfr649", "z-score": 0.705}
{"Residue Codes": "GGAUUUUUGAUGAUGUGUCTT against Arfgap1", "z-score": -0.795}
{"Residue Codes": "GGUGAUUCACAUACUUUAUTT against Vps54", "z-score": 0.612}

---

Assay: Components of the Cytosolic LPS Sensing Pathway: Gene Identification via Genome-wide siRNA Screen;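 also: robust z of the log signal after scaling to non-targeting control siRNA wells of the plate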
Conditions: RAW264.7 macrophages, IL-1a HTRF, actives lie on both sides, screened at 100 nM (by protocol), cells primed 5 h with Pam3CSK4 first
Screen size: about 53,000 sequences; about 3,700 (7%) were called active. This is one part of a sample in which actives are shown more often than they occur.
z-score: recorded values

{"Residue Codes": "GGCCUCGUCAUUUUACAGGTT against Mcee", "z-score": 0.098}
{"Residue Codes": "GGCUGUAUGUAUAUAGUCCTT against Snrpb", "z-score": -2.41}
{"Residue Codes": "GGGCUCUGUGGAAAUCAUGTT against Rnf187", "z-score": -0.043}
{"Residue Codes": "GGCUCUGGAAAAGAACAACTT against Sds", "z-score": 1.52}
{"Residue Codes": "GCACUGUCGCAUCAUCAGATT against D230025D16Rik", "z-score": 1.83}
{"Residue Codes": "GCAUUGGUGUUUAGUUGGUTT against Gdf2", "z-score": 1.11}
{"Residue Codes": "CCCGAGACCAUUAAUGAUUTT against Snx3", "z-score": -0.306}
{"Residue Codes": "GGACAAAUUCUACAUCAGCTT against Adam8", "z-score": 0.0533}
{"Residue Codes": "GGAAUUCAUUGCUAUUAUGTT against Cetn3", "z-score": 2.12}
{"Residue Codes": "GGACCAUAAGCACAUGAUUTT against Prl7c1", "z-score": 0.668}
{"Residue Codes": "GCCUGUUAUAUGUGGCCUUTT against Olfr1352", "z-score": 0.673}
{"Residue Codes": "GGAAUUUUCUCGAUUUCACTT against Pde6b", "z-score": 1.13}
{"Residue Codes": "GGGUUUUUGAUGAUGAUUCTT against Htatsf1", "z-score": -0.66}
